Test system: HeLa Kyoto;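 further: HeLa Kyoto cells arrested at G1/S by double thymidine block, proteins quantified by TMT10plex mass spectrometry in mild NP-40 versus SDS extracts, three biological replicates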
Assay: solubility in G1/S (NP-40 vs SDS abundance) (log2 ratio); higher = more soluble
Settings: cell cycle stage: G1/S
metricName: solubility in G1/S (log2)
Keep the answer to the number alone.

solubility in G1/S (log2) for MSLHGKRKEIYKYEAPWTVYAMNWSVRPDKRFRLALGSFVEEYNNKVQLVGLDEESSEFICRNTFDHPYPTTKLMWIPDTKGVYPDLLATSGDYLRVWRVGETETRLECLLNNNKNSDFCAPLTSFDWNEVDPYLLGTSSIDTTCTIWGLETGQVLGRVNLVSGHVKTQLIAHDKEVYDIAFSRAGGGRDMFASVGADGSVRMFDLRHLEHSTIIYEDPQHHPLLRLCWNKQDPNYLATMAMDGMEVVILDVRVPCTPVARLNNHRACVNGIAWAPHSSCHICTAADDHQALIWDIQQMPRAIEDPILAYTAEGEINNVQWASTQPDWIAICYNNCLEILRV [DCAF7] ?
-0.0563

Dear colleague, I am looking for the recorded solubility in G1/S (log2) of the following sequence: MDWLMGKSKAKPNGKKPAAEERKAYLEPEHTKARITDFQFKELVVLPREIDLNEWLASNTTTFFHHINLQYSTISEFCTGETCQTMAVCNTQYYWYDERGKKVKCTAPQYVDFVMSSVQKLVTDEDVFPTKYGREFPSSFESLVRKICRHLFHVLAHIYWAHFKETLALELHGHLNTLYVHFILFAREFNLLDPKETAIMDDLTEVLCSGAGGVHSGGSGDGAGSGGPGAQNHVKER [MOB2]
-0.0333

Name the reported solubility in G1/S (log2) value associated with the sequence MADFLPSRSVLSVCFPGCLLTSGEAEQQRKSKEIDKCLSREKTYVKRLVKILLLGAGESGKSTFLKQMRIIHGQDFDQRAREEFRPTIYSNVIKGMRVLVDAREKLHIPWGDNSNQQHGDKMMSFDTRAPMAAQGMVETRVFLQYLPAIRALWADSGIQNAYDRRREFQLGESVKYFLDNLDKLGEPDYIPSQQDILLARRPTKGIHEYDFEIKNVPFKMVDVGGQRSERKRWFECFDSVTSILFLVSSSEFDQVLMEDRLTNRLTESLNIFETIVNNRVFSNVSIILFLNKTDLLEEKVQIVSIKDYFLEFEGDPHCLRDVQKFLVECFRNKRRDQQQKPLYHHFTTAINTENIRLVFRDVKDTILHDNLKQLMLQ [GNA13]
-0.176
